Data provenance is paper PMC2981824.

Assignment: determine reported IC50 for the given molecules.

// fetch PfFabG (Plasmodium falciparum, UniProt Q8I2S7) IC50 for "CCCCCCC#CCCCCCCCC(=O)O"
> 396 µM

Entry CCCCCCCCCCCCCCCC(=O)O [PA, Palmitic acid, reference compound] , system PfFabG (Plasmodium falciparum, UniProt Q8I2S7): what IC50 was measured?
> 390 µM

Identify the measured IC50 of "CCCCCCCCCCC#CCCCC(=O)O" for PfFabG (Plasmodium falciparum, UniProt Q8I2S7).
> 396 µM

PfFabG (Plasmodium falciparum, UniProt Q8I2S7) / IC50 / "CCCCCCCCCCCCCC#CC(=O)O" : value?
13.9 µM

Identify the measured IC50 of "CCCCCCCCCC#CCCCCC(=O)O" for PfFabG (Plasmodium falciparum, UniProt Q8I2S7).
> 396 µM

----------
Test: Cytotoxicity against L6 cells
Assay type: cell-based, rat
Conditions: rat
Property measured: IC50 at 72 h (µg/mL)
API: value field is a number in µg/mL; no unit string.

Quick one: IC50 at 72 h of "CCCCCCCCCCCCCC#CC(=O)O" ?
85.9

----------
Molecular target: PfFabI (Plasmodium falciparum, UniProt Q9BH77)
Sequence (Q9BH77 22-432): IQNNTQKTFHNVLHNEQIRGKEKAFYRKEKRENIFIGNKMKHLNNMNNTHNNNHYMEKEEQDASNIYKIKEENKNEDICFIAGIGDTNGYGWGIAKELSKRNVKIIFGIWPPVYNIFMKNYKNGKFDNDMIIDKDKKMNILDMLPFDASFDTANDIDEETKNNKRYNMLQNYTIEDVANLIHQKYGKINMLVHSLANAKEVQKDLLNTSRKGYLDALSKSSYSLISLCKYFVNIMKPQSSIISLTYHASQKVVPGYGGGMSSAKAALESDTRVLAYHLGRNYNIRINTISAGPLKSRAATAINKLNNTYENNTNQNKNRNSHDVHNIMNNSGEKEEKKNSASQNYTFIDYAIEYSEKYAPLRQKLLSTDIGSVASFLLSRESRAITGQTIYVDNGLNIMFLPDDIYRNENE
Property measured: IC50 (nM)
Hi! Could you send only the number? It should be in nM, unit omitted.

Give the measured IC50 of "CCCCCCCCCCCCCC#CC(=O)O" .
1510

----------
Target: PfFabI (Plasmodium falciparum)
Assay: biochemical
Format: biochemical
Conditions: Ki PfFabI, cofactor (NADH) varied
Property measured: Ki
Don't forget the unit after the number, please.

PfFabI (Plasmodium falciparum) / Ki / "CCCCCCCCCCCCCC#CC(=O)O" : value?
2580 nM
